Origin of measurements: ChEMBL document CHEMBL1132545

Target: Leukotriene B4 receptor (Homo sapiens, UniProt Q9NPC1+Q15722)
Assay: Inhibition of binding of [3H]LTB4 (1 nM) to intact human polymorphonuclear leukocytes (PMNs)
METRIC_NAME: IC50

* CN(C)C(=O)C[C@]1(O)CCC[C@H](/C=C/C(C)(O)CCCCc2ccccc2)C1 (stereo in doubt; 15b) | 7 µM
* O=C([O-])C[C@]1(O)CCC[C@H](/C=C/C(=O)CCCCc2ccccc2)C1.[Na+] | > 10 µM
* CN(C)C(=O)C[C@]1(O)CCC[C@H](/C=C/C(F)CCCCc2ccccc2)C1 (stereo in doubt; 16 a) | 2 µM
* CCCCCC(O)/C=C/[C@H]1CCC[C@](O)(CC(=O)[O-])C1.[Na+] (stereo in doubt; 2d) | 10 µM
* CN(C)OC(=O)/C=C1/CCC[C@H](/C=C/C(O)CCCCc2ccccc2)C1 (stereo partly drawn) | 7 µM
* CN(C)C(=O)C[C@]1(O)CCC[C@H](/C=C/[C@H](O)CCCCc2ccccc2)C1 | > 10 µM
* O=C([O-])/C=C1/CCC[C@H](/C=C/C(O)CCCCc2ccccc2)C1.[Na+] (stereo in doubt; 10a) | > 10 µM
* CN(C)OC(=O)C[C@@]1(O)CCC[C@H](/C=C/C(O)CCCCc2ccccc2)C1 (stereo partly drawn) | 0.08 µM
